# pKi annotations
- Method Description: Inhibition of HCV NS3 protease in absence of human serum
- Parameters: species or system Hepacivirus hominis
Please treat pKi as minus the base-10 logarithm of the molar concentration.

Consider the reported pKi for these molecules:
CCCCC(NC(=O)[C@@H]1[C@@H]2[C@H](CN1C(=O)[C@@H](NC(=O)NC(CN1C(=O)CC(C)(C)CC1=O)C(C)(C)C)C(C)(C)C)C2(C)C)C(=O)C(=O)NCC (single isomer, unassigned): 7.89
CC(C)(C)NC(=O)N[C@H](C(=O)N1C[C@H]2[C@@H]([C@H]1C(=O)NC(CC1CCC1)C(=O)C(N)=O)C2(C)C)C(C)(C)C (stereo not given in full): 7.85
CCCCC(NC(=O)[C@@H]1[C@@H]2[C@H](CN1C(=O)[C@@H](NC(=O)N[C@@H](CN1C(=O)CC(C)(C)CC1=O)C(C)(C)C)C(C)(C)C)C2(C)C)C(=O)C(=O)NCc1ccccn1 (stereo not given in full): 7.66

**Q:** I am curious: what pKi value has been reported for C=CCNC(=O)C(=O)C(CCCC)NC(=O)[C@@H]1[C@@H]2[C@H](CN1C(=O)[C@@H](NC(=O)NC(CN1C(=O)CNC1=O)C(C)(C)C)C(C)(C)C)C2(C)C (single isomer, unassigned) ?
**A:** 8.10

**Q:** Reported pKi, molecule C=CCNC(=O)C(=O)C(CCCC)NC(=O)[C@@H]1[C@@H]2[C@H](CN1C(=O)[C@@H](NC(=O)NC(CN1C(=O)CCN(C)C1=O)C(C)(C)C)C(C)(C)C)C2(C)C (single isomer, unassigned) : ____
**A:** 8.15

**Q:** Look at this molecule and give its reported pKi. C=CCNC(=O)C(=O)C(CCC)NC(=O)[C@@H]1[C@@H]2[C@H](CN1C(=O)[C@@H](NC(=O)NC(CN1C(=O)CC(C)(C)CC1=O)C(C)(C)C)C(C)(C)C)C2(C)C (single isomer, unassigned)
**A:** 8.40

**Q:** Can you look up the measured pKi of C=CCNC(=O)C(=O)C(CCCC)NC(=O)[C@@H]1[C@@H]2[C@H](CN1C(=O)[C@@H](NC(=O)NC(CN1C(=O)CN(C)CC1=O)C(C)(C)C)C(C)(C)C)C2(C)C (single isomer, unassigned) for me?
**A:** 8.22

**Q:** Return reported pKi; argument: C=CCNC(=O)C(=O)C(CCCC)NC(=O)[C@@H]1[C@@H]2[C@H](CN1C(=O)[C@@H](NC(=O)NC(CN1C(=O)CN(c3ccccc3)CC1=O)C(C)(C)C)C(C)(C)C)C2(C)C (single isomer, unassigned)
**A:** 7.92

**Q:** Param item = C=CCNC(=O)C(=O)C(CCCC)NC(=O)[C@@H]1[C@@H]2[C@H](CN1C(=O)[C@@H](NC(=O)NC(CN1C(=O)CCC1=O)C(C)(C)C)C(C)(C)C)C2(C)C (single isomer, unassigned) ; retrieve measured pKi.
**A:** 7.89

**Q:** Item C=CCNC(=O)C(=O)C(CCCC)NC(=O)[C@@H]1[C@@H]2[C@H](CN1C(=O)[C@@H](NC(=O)N[C@@H](CN1C(=O)NC(C)(C)C1=O)C(C)(C)C)C(C)(C)C)C2(C)C (stereo not given in full) has what recorded pKi?
**A:** 7.96

---

- Method Description: Selectivity for HCV NS3 protease over human neutrophil elastase
Quantity Name: Ratio
Give only the figure.

C=CCNC(=O)C(=O)C(CCC1CC1)NC(=O)[C@@H]1[C@@H]2[C@H](CN1C(=O)[C@@H](NC(=O)NC(CN1C(=O)CC(C)(C)CC1=O)C(C)(C)C)C(C)(C)C)C2(C)C (single isomer, unassigned): 11000
C=CCNC(=O)C(=O)C(CCCC)NC(=O)[C@@H]1[C@@H]2[C@H](CN1C(=O)C(NC(=O)NC(CN1C(=O)CC(C)(C)CC1=O)C(C)(C)C)C1Cc3ccccc3C1)C2(C)C (single isomer, unassigned): 1800
C=CCNC(=O)C(=O)C(CCCC)NC(=O)[C@@H]1[C@@H]2[C@H](CN1C(=O)[C@@H](NC(=O)NC(CN1C(=O)CC(C)(C)CC1=O)C(C)(C)C)C1CCCCC1)C2(C)C (single isomer, unassigned): 2400

**Q:** Data request, read-out Ratio, for C=CCNC(=O)C(=O)C(CCCC)NC(=O)[C@@H]1[C@@H]2[C@H](CN1C(=O)[C@@H](NC(=O)NC(CN1C(=O)COCC1=O)C(C)(C)C)C(C)(C)C)C2(C)C (single isomer, unassigned)
**A:** 7200

**Q:** Can you look up the measured Ratio of C=CCNC(=O)C(=O)C(CCCC)NC(=O)[C@@H]1[C@@H]2[C@H](CN1C(=O)[C@@H](NC(=O)NC(CN1C(=O)CN(c3ccccc3)CC1=O)C(C)(C)C)C(C)(C)C)C2(C)C (single isomer, unassigned) for me?
**A:** 90

**Q:** Any idea what its Ratio is? The molecule is CCCCC(NC(=O)[C@@H]1[C@@H]2[C@H](CN1C(=O)[C@@H](NC(=O)N[C@@H](CN1C(=O)CC(C)(C)CC1=O)C(C)(C)C)C(C)(C)C)C2(C)C)C(=O)C(=O)NCc1ccccc1 (stereo not given in full)
**A:** 1100

**Q:** Quick one: Ratio for C=CCNC(=O)C(=O)C(CCCC)NC(=O)[C@@H]1[C@@H]2[C@H](CN1C(=O)[C@@H](NC(=O)NC(CN1C(=O)CCNC1=O)C(C)(C)C)C(C)(C)C)C2(C)C (single isomer, unassigned) ?
**A:** 4300

**Q:** What does the data say about its Ratio? Entry: C=CCNC(=O)C(=O)C(CCCC)NC(=O)[C@@H]1[C@@H]2[C@H](CN1C(=O)[C@@H](NC(=O)NC(CN1C(=O)CNC1=O)C(C)(C)C)C(C)(C)C)C2(C)C (single isomer, unassigned)
**A:** 1200

**Q:** Look up Ratio for this molecule: C=CCNC(=O)C(=O)C(CCCC)NC(=O)[C@@H]1[C@@H]2[C@H](CN1C(=O)[C@@H](NC(=O)NC(CN1C(=O)CC(C)(C)CC1=O)C(C)(C)C)C(C)(C)C)C2(C)C (single isomer, unassigned)
**A:** 9300

**Q:** Recorded Ratio of C=CCNC(=O)C(=O)C(CCCC)NC(=O)[C@@H]1[C@@H]2[C@H](CN1C(=O)[C@@H](NC(=O)N[C@@H](CN1C(=O)NC(C)(C)C1=O)C(C)(C)C)C(C)(C)C)C2(C)C (stereo not given in full) , please.
**A:** 2500

---

Here the recorded Ratio is given for each entry.
- Method Description: Selectivity for HCV NS3 protease over human neutrophil elastase
Please respond with just the number, no unit label.

For orientation, consider the following solved cases.
C=CCNC(=O)C(=O)C(CCCC)NC(=O)[C@@H]1[C@@H]2[C@H](CN1C(=O)[C@@H](NC(=O)N[C@@H](CN1C(=O)c3ccccc3C1=O)C(C)(C)C)C(C)(C)C)C2(C)C (stereo not given in full): 500
C=CCNC(=O)C(=O)C(CCCC)NC(=O)[C@@H]1[C@@H]2[C@H](CN1C(=O)[C@@H](NC(=O)N[C@@H](CN1C(=O)CN(C)C1=O)C(C)(C)C)C(C)(C)C)C2(C)C (stereo not given in full): 1200
C=CCNC(=O)C(=O)C(CCCC)NC(=O)[C@@H]1[C@@H]2[C@H](CN1C(=O)[C@@H](NC(=O)NC(CN1C(=O)CN(C)CC1=O)C(C)(C)C)C(C)(C)C)C2(C)C (single isomer, unassigned): 9500
C=CCNC(=O)C(=O)C(CCCC)NC(=O)[C@@H]1[C@@H]2[C@H](CN1C(=O)[C@@H](NC(=O)N[C@@H](CN1C(=O)CCCC1=O)C(C)(C)C)C(C)(C)C)C2(C)C (stereo not given in full): 69000

**Q:** Look up Ratio: C=CCNC(=O)C(=O)C(CCCC)NC(=O)[C@@H]1[C@@H]2[C@H](CN1C(=O)C(NC(=O)NC(CN1C(=O)CC(C)(C)CC1=O)C(C)(C)C)C1(C)Cc3ccccc3C1)C2(C)C (single isomer, unassigned)
**A:** 220

**Q:** What value of Ratio has been recorded for this entry: C=CCNC(=O)C(=O)C(CCCC)NC(=O)[C@@H]1[C@@H]2[C@H](CN1C(=O)[C@@H](NC(=O)NC(CN1C(=O)CCC1=O)C(C)(C)C)C(C)(C)C)C2(C)C (single isomer, unassigned)
**A:** 2000

**Q:** Recorded Ratio for C#CCCC(NC(=O)[C@@H]1[C@@H]2[C@H](CN1C(=O)[C@@H](NC(=O)NC(CN1C(=O)CC(C)(C)CC1=O)C(C)(C)C)C(C)(C)C)C2(C)C)C(=O)C(=O)NCC=C (single isomer, unassigned) , please?
**A:** 230

**Q:** If you can, please state the reported Ratio value of C=CCNC(=O)C(=O)C(CCCC)NC(=O)[C@@H]1[C@@H]2[C@H](CN1C(=O)[C@@H](NC(=O)N[C@@H](CN1C(=O)C3CC3C1=O)C(C)(C)C)C(C)(C)C)C2(C)C (stereo not given in full) .
**A:** 9500

**Q:** Using the record for CCCCC(NC(=O)[C@@H]1[C@@H]2[C@H](CN1C(=O)[C@@H](NC(=O)N[C@@H](CN1C(=O)CC(C)(C)CC1=O)C(C)(C)C)C(C)(C)C)C2(C)C)C(=O)C(=O)NCc1ccccn1 (stereo not given in full) , report its Ratio.
**A:** 2500

**Q:** Ratio lookup needed for C=CCNC(=O)C(=O)C(CCCC)NC(=O)[C@@H]1[C@@H]2[C@H](CN1C(=O)[C@@H](NC(=O)N[C@@H](CN1C(=O)CCC(C)(C)C1=O)C(C)(C)C)C(C)(C)C)C2(C)C (stereo not given in full) , thanks.
**A:** 3100
